Value source: patent US12318403B2

# target_or_test_system: human wild type STING (WT STING) (Homo sapiens, UniProt Q86WV6, H232R)
# Sequence (Q86WV6 whole entry H232R): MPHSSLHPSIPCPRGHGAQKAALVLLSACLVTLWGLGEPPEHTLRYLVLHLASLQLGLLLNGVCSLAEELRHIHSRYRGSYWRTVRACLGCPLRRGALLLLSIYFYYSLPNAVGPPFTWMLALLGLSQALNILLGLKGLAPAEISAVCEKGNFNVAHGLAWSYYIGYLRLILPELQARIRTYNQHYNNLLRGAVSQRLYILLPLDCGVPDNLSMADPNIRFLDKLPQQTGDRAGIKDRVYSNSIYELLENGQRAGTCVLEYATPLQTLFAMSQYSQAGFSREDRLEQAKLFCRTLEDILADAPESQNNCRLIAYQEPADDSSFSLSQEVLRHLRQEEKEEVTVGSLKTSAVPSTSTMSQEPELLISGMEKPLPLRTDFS
# assay: 293T WT STING standard reporter assay
# Type: cell-based
# assay_context: 293T WT STING EC50, 293T wtSTING-FL cells; standard reporter assay without digitonin; 7 hours; ISRE firefly luciferase
pEC50: −log10 of the molar value.
So basically: pEC50 at 7 or higher? That is 1. Lower than 7? That is -1.

[
  {
    "compound": "CC(C)(C)C(=O)OCSP1(=O)CO[C@H]2[C@@H](F)[C@H](n3cnc4c(N)ncnc43)O[C@@H]2COP(=O)(SCOC(=O)C(C)(C)C)O[C@@H]2[C@H](F)[C@@H](CO1)O[C@H]2n1cnc2c(=O)[nH]c(N)nc21 (single isomer, unassigned) [Compound 55c]",
    "label_class": -1
  },
  {
    "compound": "CCCCCC(=O)Oc1ccc(C(=O)Oc2ccc(CSP3(=O)CO[C@H]4[C@@H](F)[C@H](n5cnc6c(N)ncnc65)O[C@@H]4COP(=O)(O)O[C@@H]4[C@H](F)[C@@H](CO3)O[C@H]4n3cnc4c(=O)[nH]c(N)nc43)cc2)cc1 (single isomer, unassigned) [Compound 49a]",
    "label_class": -1
  },
  {
    "compound": "CCCCCCCCCCCC(=O)OCSP1(=O)CO[C@H]2[C@@H](F)[C@H](n3cnc4c(N)ncnc43)O[C@@H]2COP(=O)(SCOC(=O)CCCCCCCCCCC)O[C@@H]2[C@H](F)[C@@H](CO1)O[C@H]2n1cnc2c(=O)[nH]c(N)nc21 (single isomer, unassigned) [Compound 78d]",
    "label_class": 1
  },
  {
    "compound": "CCCCCCCCCCCC(=O)Oc1ccc(CSP2(=O)CO[C@H]3[C@@H](F)[C@H](n4cnc5c(N)ncnc54)O[C@@H]3COP(=O)(O)O[C@@H]3[C@H](F)[C@@H](CO2)O[C@H]3n2cnc3c(=O)[nH]c(N)nc32)cc1 (single isomer, unassigned) [Compound 47a]",
    "label_class": 1
  }
]

input: Quick check: does CC(C)(C)C(=O)Oc1ccc(CSP2(=O)CO[C@H]3[C@@H](F)[C@H](n4cnc5c(N)ncnc54)O[C@@H]3COP(=O)(O)O[C@@H]3[C@H](F)[C@@H](CO2)O[C@H]3n2cnc3c(=O)[nH]c(N)nc32)cc1 (single isomer, unassigned) [Compound 43a] have pEC50 greater than or equal to 7?
output: -1

input: Answer whether pEC50 of CC(C)(C)C(=O)OCOc1ccc(CSP2(=O)CO[C@H]3[C@@H](F)[C@H](n4cnc5c(N)ncnc54)O[C@@H]3COP(=O)(O)O[C@@H]3[C@H](F)[C@@H](CO2)O[C@H]3n2cnc3c(=O)[nH]c(N)nc32)cc1 (single isomer, unassigned) [Compound 44b] is greater than or equal to 7.
output: -1

###

Overview of recorded pEC50 for various compounds
# Tested on: peripheral blood mononuclear cell (PBMC)
# assay: Peripheral blood mononuclear cell assay
# assay_context: read-out: PBMC EC50 IFN-α; compounds 1h, washed, 15 hour incubation; interferon-alpha level in medium; average of one to four donors
pEC50 here is simply -log10 of the concentration when that concentration is written in mol/L.

[
  {
    "compound": "CC(C)(C)C(=O)OCOP1(=O)CO[C@H]2[C@@H](F)[C@H](n3cnc4c(N)ncnc43)O[C@@H]2COP(=O)(OCOC(=O)C(C)(C)C)O[C@@H]2[C@H](F)[C@@H](CO1)O[C@H]2n1cnc2c(=O)[nH]cnc21 (single isomer, unassigned) [Compound 77b]",
    "measured_result": 5.40
  }
]

What the record says about CC(C)(C)C(=O)OCOP1(=O)CO[C@H]2[C@@H](F)[C@H](n3cnc4c(N)ncnc43)O[C@@H]2COP(=O)(OCOC(=O)C(C)(C)C)O[C@@H]2[C@H](F)[C@@H](CO1)O[C@H]2n1cnc2c(N)ncnc21 (single isomer, unassigned) [Compound 81b] : pEC50 is 6.00

// CCCCCCCCCCCCCCCC(=O)OCSP1(=O)OC[C@H]2O[C@@H](n3cnc4c(N)ncnc43)[C@H](F)[C@@H]2OCP(=O)(O)OC[C@H]2O[C@@H](n3cnc4c(=O)[nH]cnc43)[C@H](O1)[C@@H]2F (single isomer, unassigned) [Compound 64a] : pEC50 value = 6.22
